- Target Or System: Interstitial collagenase (Homo sapiens)
- Sequence (P03956 whole entry): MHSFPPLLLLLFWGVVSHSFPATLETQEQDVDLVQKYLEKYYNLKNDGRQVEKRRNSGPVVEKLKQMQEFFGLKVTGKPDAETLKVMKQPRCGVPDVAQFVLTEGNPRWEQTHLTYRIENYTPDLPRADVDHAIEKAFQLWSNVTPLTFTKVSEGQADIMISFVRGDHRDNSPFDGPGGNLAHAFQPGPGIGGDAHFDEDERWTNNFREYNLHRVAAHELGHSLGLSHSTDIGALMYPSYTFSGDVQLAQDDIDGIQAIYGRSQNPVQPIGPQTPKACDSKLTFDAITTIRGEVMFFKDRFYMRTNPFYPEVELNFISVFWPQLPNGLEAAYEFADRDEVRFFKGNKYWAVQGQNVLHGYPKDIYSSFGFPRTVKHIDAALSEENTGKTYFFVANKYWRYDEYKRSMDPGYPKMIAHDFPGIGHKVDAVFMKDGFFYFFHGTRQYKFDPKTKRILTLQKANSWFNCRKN
- Assay Text: Inhibition of human recombinant matrix metalloprotease-1 (hMMP-1)
Parameter Measured: IC50 (nM)
Please respond with the number in nM and leave the unit unwritten.

Req: Reported IC50 for COc1ccc(S(=O)(=O)C2CCCC(S)C2)cc1 (centres undefined) : what is it?
Resp: 1000

Req: Record: O=S(=O)(c1ccc(Oc2ccccc2)cc1)C1CCCC(S)C1 (centres undefined)
Resp: 1700

---

- Target Or System: UniProtKB P45452
- Assay Text: Inhibition of human recombinant matrix metalloprotease-13 (hMMP-13)
Parameter Measured: pIC50
Value format note: pIC50 is -log10 of concentration (mol/L); just state the number.

Req: Reported pIC50 for O=S(=O)(c1ccc(Oc2ccccc2)cc1)C1CCCC(S)C1 (stereo unspecified) : what is it?
Resp: 9.00

---

- Target Or System: Neutrophil collagenase (Homo sapiens, UniProt P22894)
- Sequence (P22894 whole entry): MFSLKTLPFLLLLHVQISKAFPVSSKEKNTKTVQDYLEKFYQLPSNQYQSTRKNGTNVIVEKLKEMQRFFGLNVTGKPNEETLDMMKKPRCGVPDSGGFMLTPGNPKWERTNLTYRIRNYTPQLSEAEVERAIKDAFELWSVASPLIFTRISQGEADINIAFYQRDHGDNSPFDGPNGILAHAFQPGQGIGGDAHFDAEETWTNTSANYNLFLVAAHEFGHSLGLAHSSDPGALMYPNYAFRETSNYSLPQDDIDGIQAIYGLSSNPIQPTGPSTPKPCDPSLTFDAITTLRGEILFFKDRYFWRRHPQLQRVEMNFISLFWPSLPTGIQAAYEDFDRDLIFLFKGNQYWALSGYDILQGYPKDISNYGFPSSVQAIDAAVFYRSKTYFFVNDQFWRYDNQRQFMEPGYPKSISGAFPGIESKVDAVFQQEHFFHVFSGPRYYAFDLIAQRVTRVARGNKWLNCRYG
- Assay Text: Inhibition of human recombinant matrix metalloprotease-8 (hMMP-8)
Parameter Measured: pIC50
Value format note: pIC50 is -log10 of concentration (mol/L); just state the number.

Req: Reported pIC50 for O=S(=O)(c1ccc(Oc2ccccc2)cc1)C1CCCC(S)C1 (centres undefined) : what is it?
Resp: 8.10

Req: Record: COc1ccc(S(=O)(=O)CCCS)cc1
Resp: 5.96

Req: Record: O=S(=O)(c1ccc(Sc2ccccc2)cc1)C1CCCC(S)C1 (centres undefined)
Resp: 7.30

Req: Record: COc1ccc(S(=O)(=O)C2CCCC(S)C2)cc1 (centres undefined)
Resp: 6.23
